Provenance of the data: patent US20110118447A1

Molecular target: binding partner (antigen) of C5A (XPA23)
Test: Biacore, K-off, fold vs original
Documented fold difference in affinity vs original across a set of binders
Measured quantity: fold difference in affinity vs original (fold)

INSERT INTO assay_data (binder, measured) VALUES
  ('C5A (XPA23) VH R59L (antibody, V domains shown) VH: EVQLLESGGGLVQPGGSLRLSCAASGFTFSKYFMFWVRQAPGKGLEWVSVISPSGGMTLYADSVKGRFTISRDNSKNTLYLQMNSLRAEDTAVYYCARVGYGGNSDYWGQGTLVTVSS VL: DIQMTQSPSSVSASVGDRLTIICRASQDINRWLAWYQQTPGNAPKLLIHSATSLQSGVPSRFSGSGSGTDFTLTINSLQPEDFATYYCQQADSFPLTFGGGTKVEIK', 0.08),
  ('C5A (XPA23) VH F35G (antibody, V domains shown) VH: EVQLLESGGGLVQPGGSLRLSCAASGFTFSKYFMGWVRQAPGKGLEWVSVISPSGGMTRYADSVKGRFTISRDNSKNTLYLQMNSLRAEDTAVYYCARVGYGGNSDYWGQGTLVTVSS VL: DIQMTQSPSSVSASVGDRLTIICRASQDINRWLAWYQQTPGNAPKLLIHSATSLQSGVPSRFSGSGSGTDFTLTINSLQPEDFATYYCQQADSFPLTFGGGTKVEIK', 0.04),
  ('C5A (XPA23) VH D106G (antibody, V domains shown) VH: EVQLLESGGGLVQPGGSLRLSCAASGFTFSKYFMFWVRQAPGKGLEWVSVISPSGGMTRYADSVKGRFTISRDNSKNTLYLQMNSLRAEDTAVYYCARVGYGGNSGYWGQGTLVTVSS VL: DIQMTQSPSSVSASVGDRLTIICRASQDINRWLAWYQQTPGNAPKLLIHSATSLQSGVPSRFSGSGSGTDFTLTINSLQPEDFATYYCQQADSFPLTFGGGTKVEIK', 0.03);
